- assay info: physchem
- measurement context: water, 25% hpbcd, lysine, pH 9, Gelöstes Dantrolen-Natrium
measurement kind: solubility thermodynamic at 24 h (mg/mL)

O=C1CN(/N=C/c2ccc(-c3ccc([N+](=O)[O-])cc3)o2)C(O)=N1 ... 15.7

###

- assay info: physchem
- measurement context: water, 25% hpbcd, edta, pH 9, Gelöstes Dantrolen-Natrium
measurement kind: solubility thermodynamic at 24 h (µg/mL)

O=C1CN(/N=C/c2ccc(-c3ccc([N+](=O)[O-])cc3)o2)C(O)=N1 ... 3600

###

- assay info: physchem
- measurement context: 25% hpbcd in deionized water, Gelöstes Dantrolen-Natrium
measurement kind: solubility thermodynamic at 24 h (mg/mL)

O=C1CN(/N=C/c2ccc(-c3ccc([N+](=O)[O-])cc3)o2)C(O)=N1 ... 15.6

Where do the numbers come from? From patent EP3360539A1.
